Where do the numbers come from? From the supplement of paper PMC6555819.

Below, each entry is listed with its recorded PBM binding z-score.
- System: THRa homodimer (NR concentration 90 nM)
- PROTOCOL: PBM binding z-score (relative to random genomic background probes); higher = stronger binding; sequences stand for … in GC…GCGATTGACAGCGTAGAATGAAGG
ENDPOINT_LABEL: PBM binding z-score

ORDERED_RESIDUES: CAAACTAGGTCAAAGGTCTAAGTCGAGCCAACCA
QUANTITATIVE_RESULT: 0.688
//
ORDERED_RESIDUES: AGTCAAAGTTCAGGTCGAGGTAACGTAAAGCACG
QUANTITATIVE_RESULT: 2.7
//
ORDERED_RESIDUES: CCTAGTGGGCCATTCAGAGGTCATTGATCATATG
QUANTITATIVE_RESULT: 1.34
//
ORDERED_RESIDUES: ATCTCTAGGTAACAAGTTCAGGGAAAGAGAGGAC
QUANTITATIVE_RESULT: 1.01
//
ORDERED_RESIDUES: CCTCCTGGGCCATCAGGTCATTGATATCAACGTT
QUANTITATIVE_RESULT: 3.09
//
ORDERED_RESIDUES: GCTAGCTGGCCATTTGGGTCACTCAATGACGGGC
QUANTITATIVE_RESULT: 0.32
//
ORDERED_RESIDUES: TAGCCTAGGTCAGTCAGGGGCCAGTATAGAAAGC
QUANTITATIVE_RESULT: 0.122
//
ORDERED_RESIDUES: CGAACTAGGTCAGAACTGGACAGTGAAGGATGAT
QUANTITATIVE_RESULT: -0.298
//
ORDERED_RESIDUES: GCTTGTAGATCGAGGTTAAGAAAGACTAAGCTAA
QUANTITATIVE_RESULT: -0.253
//
ORDERED_RESIDUES: CGTCCAAGGTCATAGGAGGTCGGTGAAGACAGAT
QUANTITATIVE_RESULT: 2.45
//
ORDERED_RESIDUES: CTACCAAGGTGAACAACGTCGTTGATTACTATTC
QUANTITATIVE_RESULT: 0.72
//
ORDERED_RESIDUES: CCTTACGGGTCACGAGGTTATAGGACGACGAGCG
QUANTITATIVE_RESULT: 1.02

---

Below, each entry is listed with its recorded PBM binding z-score.
- Test system: RARg:RXRa (NR concentration 270 nM, RXRa partner concentration 90 nM)
- PROTOCOL: PBM binding z-score (relative to random genomic background probes); higher = stronger binding; sequences stand for … in GC…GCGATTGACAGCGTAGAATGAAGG

ORDERED_RESIDUES: TCTTGTTGATCAGCAGGTTAAGAAAGCTGGCCAA
PBM binding z-score: -0.129

ORDERED_RESIDUES: ACAGACAGGTGATGAAAGTAACTCAGGCTATCAT
PBM binding z-score: 0.123

ORDERED_RESIDUES: TCGTGTAGATCAAAGGTTAAGAAAGCCGAAGCCT
PBM binding z-score: 1.76

ORDERED_RESIDUES: ATCGAAAGGTCGGGAGGTGAGTATACAGAAAGGC
PBM binding z-score: 3.82

ORDERED_RESIDUES: AGCTCTAGGTAACAAGTTCAGTGAAAGAGAGGAC
PBM binding z-score: 1.12

ORDERED_RESIDUES: CCTACTGGGACAAAAAGGTCATTGATGCCGATAA
PBM binding z-score: 4.68

ORDERED_RESIDUES: CGTCCCAGGTCAATGCTAGGTCAGTGAAAGCATT
PBM binding z-score: 6.41

ORDERED_RESIDUES: GATACAGGGTCATGGCCAGAGTACGCGTATTGAT
PBM binding z-score: 5.62

ORDERED_RESIDUES: CCTTACGGGTCACTGACAGGCTATAGCATTTGGA
PBM binding z-score: 5.13

ORDERED_RESIDUES: GCTTGTAGATCAAGGTTAAGAGAGACTAAGCTAA
PBM binding z-score: 0.263

ORDERED_RESIDUES: GCGACTGGGGCATCAGCACGTTACCATAACTTAA
PBM binding z-score: 0.0207

ORDERED_RESIDUES: CCGACTGGGGTAAAGGTTACCATACTCAGTACGA
PBM binding z-score: 2.51

ORDERED_RESIDUES: TGAATGAGGGTAAAGATCAGGGAACGTGGCGTCG
PBM binding z-score: 0.443

ORDERED_RESIDUES: CTCGAAAGGTCGTGCTCAGGTGAGTTTACCAAAC
PBM binding z-score: 5.22

ORDERED_RESIDUES: CCTACTGGTCCAAAGGTCATTGATTCCAATGCTC
PBM binding z-score: 5.09

ORDERED_RESIDUES: TCGAGTAGGTTAGTGGCATTCAGAATGGCGTCGA
PBM binding z-score: -0.478

ORDERED_RESIDUES: CGTCAAAGTTCAACTAGGGTAACGTAAAGCACGC
PBM binding z-score: 5.87

ORDERED_RESIDUES: AGAACGAGGGCACCCTGAGTTGATAGCAGAGTAG
PBM binding z-score: 1.54

ORDERED_RESIDUES: TCGACTAGGTTAGGGGCATTCAGAATGGCGTCGA
PBM binding z-score: 0.355

ORDERED_RESIDUES: GCTAGTTGGTCAGTGAAAGGTCACACACCGGTCG
PBM binding z-score: 5.66

ORDERED_RESIDUES: GCTTGTAGATCAAGGTTGAGAAAGACTAAGCTAA
PBM binding z-score: -0.343

ORDERED_RESIDUES: TTACCAAGGGGAAGGTCGTTGATCCCTCTGTAGA
PBM binding z-score: 0.225

ORDERED_RESIDUES: CCTTACGGGTCACTCCGGGTTATAGCATCGGAGT
PBM binding z-score: 4.46

ORDERED_RESIDUES: CAAACTAGGTCAAAGGACAAAGTCGAGCCAACCA
PBM binding z-score: 4.32

ORDERED_RESIDUES: ACTAGCAGGCCAAGTTTGGGCCACTCAAACAAAG
PBM binding z-score: 0.0368

ORDERED_RESIDUES: CAGCCTAGGTCTGGGCCAGTATAGGAGGAACGTT
PBM binding z-score: -0.501
